# system-name: Bfl-1 (Homo sapiens, UniProt Q16548)
# Construct: c-myc
# Sequence (Q16548 whole entry): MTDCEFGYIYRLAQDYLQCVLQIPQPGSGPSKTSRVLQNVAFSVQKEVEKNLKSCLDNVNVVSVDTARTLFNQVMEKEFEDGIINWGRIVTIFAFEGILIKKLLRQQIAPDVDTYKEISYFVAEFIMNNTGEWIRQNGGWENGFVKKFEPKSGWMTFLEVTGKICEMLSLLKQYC
# assay-procedure: Competition fluorescence polarization (anisotropy) with fluoresceinated BIM
# Type: binding
# particulars: competition FP source data; replicate 2
# Description: Plates were mixed at 23°C for 3 hr. Plates were read again at 24 to check equilibration. Experiments were done in at least triplicate.
Below, each entry is listed with its recorded Ki (M) Bfl-1.
readout: Ki (M) Bfl-1

{"substance": "Ac-QWVREIAAGLRLAADNVNAQLER-NH2 [FS1]", "readout": "Ki (M) Bfl-1", "value": "1.72e-08 M"}
{"substance": "Ac-QWVREIAAGLRRAADDVNAQVER-NH2 [FS2]", "readout": "Ki (M) Bfl-1", "value": "2.52e-08 M"}
{"substance": "Ac-RPVIWIAQGLRRAGDEVNAYVAR-NH2 [BIM-FS2]", "readout": "Ki (M) Bfl-1", "value": "7.87e-07 M"}
{"substance": "Ac-QWVREIAAQLRRMADDLNAQYER-NH2 [FS2_N/Puma_C]", "readout": "Ki (M) Bfl-1", "value": "6.79e-07 M"}

----------
Overview of reported Ki (M) Bcl-2 across a group of substances:
# system-name: Bcl-2 (Homo sapiens)
# Construct: c-myc
# Sequence (P10415 whole entry): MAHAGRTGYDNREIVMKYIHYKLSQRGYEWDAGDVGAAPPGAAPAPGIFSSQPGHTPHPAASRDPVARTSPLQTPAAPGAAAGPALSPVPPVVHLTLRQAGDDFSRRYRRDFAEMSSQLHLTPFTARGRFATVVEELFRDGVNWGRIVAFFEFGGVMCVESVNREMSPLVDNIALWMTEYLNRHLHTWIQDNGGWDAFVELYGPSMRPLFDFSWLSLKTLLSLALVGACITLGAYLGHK
# assay-procedure: Competition fluorescence polarization (anisotropy) with fluoresceinated BIM
# Type: binding
# particulars: competition FP source data; replicate 2

{"substance": "Ac-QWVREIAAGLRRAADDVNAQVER-NH2 [FS2]", "Ki (M) Bcl-2": "2.86e-06"}
{"substance": "Ac-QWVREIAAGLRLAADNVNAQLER-NH2 [FS1]", "Ki (M) Bcl-2": "4.66e-06"}
{"substance": "Ac-QWIREIAAGLRRFADILNAQVER-NH2 [FS3]", "Ki (M) Bcl-2": "2.41e-06"}
{"substance": "Ac-QWVREIAAQLRRMADDLNAQYER-NH2 [FS2_N/Puma_C]", "Ki (M) Bcl-2": "1.85e-06"}

----------
Each entry below carries its reported Ki (M) Bcl-w.
# system-name: Bcl-w (Homo sapiens)
# Construct: c-myc
# Sequence (Q92843 1-193): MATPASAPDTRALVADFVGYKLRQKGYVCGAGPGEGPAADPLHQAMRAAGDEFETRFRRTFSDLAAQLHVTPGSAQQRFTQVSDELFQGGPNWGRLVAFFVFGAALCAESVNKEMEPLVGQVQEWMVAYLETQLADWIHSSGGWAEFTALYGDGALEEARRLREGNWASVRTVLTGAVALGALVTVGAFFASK
# assay-procedure: Competition fluorescence polarization (anisotropy) with fluoresceinated BIM
# Type: binding
# particulars: competition FP source data; replicate 1

{"substance": "Ac-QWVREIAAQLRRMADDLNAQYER-NH2 [FS2_N/Puma_C]", "Ki (M) Bcl-w": "9.94e-06"}
{"substance": "Ac-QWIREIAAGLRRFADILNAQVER-NH2 [FS3]", "Ki (M) Bcl-w": "7.55e-07"}
{"substance": "Ac-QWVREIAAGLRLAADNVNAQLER-NH2 [FS1]", "Ki (M) Bcl-w": "5.7e-06"}
{"substance": "Ac-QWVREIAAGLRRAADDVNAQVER-NH2 [FS2]", "Ki (M) Bcl-w": "1.14e-05"}

----------
# system-name: Bcl-xL (Homo sapiens)
# Construct: c-myc
# Sequence (Q07817 whole entry): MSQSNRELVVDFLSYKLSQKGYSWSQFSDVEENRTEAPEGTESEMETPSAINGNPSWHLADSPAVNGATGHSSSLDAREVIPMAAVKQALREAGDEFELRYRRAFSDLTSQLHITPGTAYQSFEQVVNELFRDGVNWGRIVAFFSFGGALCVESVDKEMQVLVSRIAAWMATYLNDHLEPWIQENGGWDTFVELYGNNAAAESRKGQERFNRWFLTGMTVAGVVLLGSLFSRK
# assay-procedure: Competition fluorescence polarization (anisotropy) with fluoresceinated BIM
# Assay type: binding
# particulars: competition FP source data; mean of three replicates; values above 5 μM are reported as > 5 μM in the figures; read-out: mean Ki (M) Bcl-xL
readout: Ki

{"substance": "Ac-QWAREIGAGLRRAADDVNAQVER-NH2 [Puma_N/FS2_C]", "value": "2.41e-09 M"}
{"substance": "Ac-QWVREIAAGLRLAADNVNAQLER-NH2 [FS1]", "value": "2.38e-06 M"}
{"substance": "Ac-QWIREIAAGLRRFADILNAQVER-NH2 [FS3]", "value": "3.23e-07 M"}
{"substance": "Ac-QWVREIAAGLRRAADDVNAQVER-NH2 [FS2]", "value": "7.07e-06 M"}

----------
# system-name: Mcl-1 (Homo sapiens)
# Construct: c-myc
# assay-procedure: Competition fluorescence polarization (anisotropy) with fluoresceinated BIM
# Format: binding
# particulars: competition FP source data; mean of three replicates; values above 5 μM are reported as > 5 μM in the figures; read-out: mean Ki (M) Mcl-1
# Method: C-myc-tagged receptors were used for all Bcl-2 homologs, as previously described ([DeBartolo et al., 2012]; [Dutta et al., 2010]). Plates were mixed at 23°C for 3 hr. Plates were read again at 24 to check equilibration. Experiments were done in at least triplicate. Data were fit, as described for competition fluorescence anisotropy experiments in [Foight et al. (2014]), to a complete competitive binding model (equation 17 in [Roehrl et al. [2004]]) using a Python script.

{"substance": "Ac-QWAREIGAGLRRAADDVNAQVER-NH2 [Puma_N/FS2_C]", "Ki, M": "3.36e-10"}
{"substance": "Ac-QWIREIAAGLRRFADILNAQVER-NH2 [FS3]", "Ki, M": "5.52e-07"}
{"substance": "Ac-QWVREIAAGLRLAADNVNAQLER-NH2 [FS1]", "Ki, M": "7.64e-06"}
{"substance": "Ac-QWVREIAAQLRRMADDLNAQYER-NH2 [FS2_N/Puma_C]", "Ki, M": "8.46e-05"}

----------
# system-name: Bcl-2 (Homo sapiens)
# Construct: c-myc
# assay-procedure: Competition fluorescence polarization (anisotropy) with fluoresceinated BIM
# Type: binding
# particulars: competition FP source data; mean of three replicates; values above 5 μM are reported as > 5 μM in the figures; read-out: mean Ki (M) Bcl-2

{"substance": "Ac-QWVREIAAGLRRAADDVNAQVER-NH2 [FS2]", "Ki / M": "2.41e-06"}
{"substance": "Ac-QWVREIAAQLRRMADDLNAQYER-NH2 [FS2_N/Puma_C]", "Ki / M": "2e-06"}
{"substance": "Ac-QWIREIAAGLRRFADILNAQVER-NH2 [FS3]", "Ki / M": "2.06e-06"}
{"substance": "Ac-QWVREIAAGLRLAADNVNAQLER-NH2 [FS1]", "Ki / M": "5.31e-06"}

----------
# system-name: Bfl-1 (Homo sapiens, UniProt Q16548)
# Construct: c-myc
# assay-procedure: Competition fluorescence polarization (anisotropy) with fluoresceinated BIM
# Type: binding
# particulars: competition FP source data; mean of three replicates
Ki values by entry
readout: Ki

{"substance": "Ac-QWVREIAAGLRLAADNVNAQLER-NH2 [FS1]", "value": "14.9 nM"}
{"substance": "Ac-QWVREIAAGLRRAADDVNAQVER-NH2 [FS2]", "value": "21.4 nM"}
{"substance": "Ac-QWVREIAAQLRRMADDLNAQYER-NH2 [FS2_N/Puma_C]", "value": "594 nM"}

----------
# system-name: Mcl-1 (Homo sapiens, UniProt Q07820)
# Construct: c-myc
# Sequence (Q07820 whole entry): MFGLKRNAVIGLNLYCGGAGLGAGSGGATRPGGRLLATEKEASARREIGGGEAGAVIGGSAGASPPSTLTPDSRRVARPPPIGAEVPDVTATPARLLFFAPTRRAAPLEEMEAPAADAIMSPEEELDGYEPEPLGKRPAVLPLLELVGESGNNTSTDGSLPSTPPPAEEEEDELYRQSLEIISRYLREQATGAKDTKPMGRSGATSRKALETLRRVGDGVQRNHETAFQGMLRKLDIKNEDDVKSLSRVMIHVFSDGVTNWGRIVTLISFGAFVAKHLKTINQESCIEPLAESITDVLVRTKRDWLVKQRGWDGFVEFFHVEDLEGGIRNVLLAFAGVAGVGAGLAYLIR
# assay-procedure: Competition fluorescence polarization (anisotropy) with fluoresceinated BIM
# Type: binding
# particulars: competition FP source data; replicate 3
Ki (M) Mcl-1 values for the substances below.
readout: Ki (M) Mcl-1

{"substance": "Ac-QWAREIGAGLRRAADDVNAQVER-NH2 [Puma_N/FS2_C]", "readout": "Ki (M) Mcl-1", "value": "1.4e-10 M"}
{"substance": "Ac-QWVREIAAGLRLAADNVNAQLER-NH2 [FS1]", "readout": "Ki (M) Mcl-1", "value": "1.24e-05 M"}
{"substance": "Ac-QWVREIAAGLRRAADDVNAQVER-NH2 [FS2]", "readout": "Ki (M) Mcl-1", "value": "3.32e-06 M"}
{"substance": "Ac-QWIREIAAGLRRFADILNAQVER-NH2 [FS3]", "readout": "Ki (M) Mcl-1", "value": "3.85e-07 M"}
{"substance": "Ac-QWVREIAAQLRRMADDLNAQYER-NH2 [FS2_N/Puma_C]", "readout": "Ki (M) Mcl-1", "value": "0.00018 M"}

----------
Each entry below lists one item and its recorded Ki (M) Mcl-1 value.
# system-name: Mcl-1 (Homo sapiens)
# Construct: c-myc
# assay-procedure: Competition fluorescence polarization (anisotropy) with fluoresceinated BIM
# Format: binding
# particulars: competition FP source data; replicate 2

{"substance": "Ac-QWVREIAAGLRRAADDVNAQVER-NH2 [FS2]", "system-name": "Mcl-1 (Homo sapiens)", "Ki (M) Mcl-1": "3.39e-06 M"}
{"substance": "Ac-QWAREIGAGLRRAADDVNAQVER-NH2 [Puma_N/FS2_C]", "system-name": "Mcl-1 (Homo sapiens)", "Ki (M) Mcl-1": "1.94e-10 M"}
{"substance": "Ac-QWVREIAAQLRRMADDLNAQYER-NH2 [FS2_N/Puma_C]", "system-name": "Mcl-1 (Homo sapiens)", "Ki (M) Mcl-1": "6.84e-05 M"}
{"substance": "Ac-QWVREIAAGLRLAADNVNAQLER-NH2 [FS1]", "system-name": "Mcl-1 (Homo sapiens)", "Ki (M) Mcl-1": "8.12e-06 M"}
{"substance": "Ac-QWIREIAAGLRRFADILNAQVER-NH2 [FS3]", "system-name": "Mcl-1 (Homo sapiens)", "Ki (M) Mcl-1": "6.19e-07 M"}
